# Tested on: Staphylococcus aureus ATCC 6538
MEASURE_NAME: MIC (µM)
Write the answer as a number in µM, unit excluded.

Bench note, Staphylococcus aureus ATCC 6538: entry CC(C)C[C@H](NC(=O)[C@H](C)NC(=O)[C@H](CC(C)C)NC(=O)[C@H](CC(C)C)NC(=O)[C@H](CCCCN)NC(=O)[C@H](CCCCN)NC(=O)[C@H](C)NC(=O)[C@H](CC(C)C)NC(=O)[C@H](CCCCN)NC(=O)[C@H](C)NC(=O)[C@H](CC(C)C)NC(=O)[C@H](CCCCN)NC(=O)[C@H](CCCCN)NC(=O)[C@H](C)NC(=O)[C@@H](N)Cc1ccccc1)C(N)=O [FAKKLAKLAKKLLAL] , its MIC = 3.02

---

# System: Staphylococcus aureus KCTC 1621
MEASURE_NAME: MIC (µM)
Report the value in µM with no unit label.

Consider CC[C@H](C)[C@H](NC(=O)[C@H](CCCCN)NC(=O)[C@@H]1CCCN1C(=O)[C@H](CC(C)C)NC(=O)[C@@H](N)CCCCN)C(=O)N[C@@H](Cc1c[nH]c2ccccc12)C(=O)N[C@@H](Cc1c[nH]c2ccccc12)C(=O)N[C@H](C(=O)N[C@@H](CCCCN)C(=O)N[C@H](C(=O)N1CCC[C@H]1C(=O)N[C@@H](CCCCN)C(N)=O)C(C)C)[C@@H](C)CC . Its measured MIC is 8.14

---

Target or system Salmonella enterica subsp. enterica serovar Pullorum C79-13: recorded MIC listed per item.
Dear colleague, please return just the value in µM, with no unit written.

1) NC(=O)[C@H](Cc1ccccc1)NC(=O)[C@H](CCCN=C(N)N)NC(=O)[C@H](CS)NC(=O)[C@H](Cc1ccccc1)NC(=O)[C@H](CCCN=C(N)N)NC(=O)[C@H](CCCN=C(N)N)NC(=O)[C@H](CCCN=C(N)N)NC(=O)[C@H](CS)NC(=O)[C@H](CCCN=C(N)N)NC(=O)[C@@H](N)Cc1ccccc1    16

// compound CC(C)C[C@H](NC(=O)[C@H](CCCCN)NC(=O)[C@H](CCCCN)NC(=O)CN)C(=O)N[C@@H](CC(C)C)C(=O)N[C@@H](Cc1c[nH]c2ccccc12)C(=O)N[C@@H](CC(C)C)C(=O)N[C@@H](CC(C)C)C(=O)N[C@@H](CCCCN)C(=O)N[C@@H](CCCCN)C(=O)NCC(N)=O , assay Salmonella enterica subsp. enterica serovar Pullorum C79-13, MIC value: 16

The measured MIC that CC[C@H](C)[C@H](N)C(=O)N[C@@H](CCCN=C(N)N)C(=O)N1CCC[C@H]1C(=O)N[C@H](C(=O)N[C@H](C(=O)N[C@@H](CCCN=C(N)N)C(=O)N1CCC[C@H]1C(=O)N[C@H](C(=O)N[C@H](C(=O)N[C@@H](CCCN=C(N)N)C(=O)N1CCC[C@H]1C(=O)N[C@H](C(=O)N[C@H](C(=O)N[C@@H](CCCN=C(N)N)C(=O)N1CCC[C@H]1C(=O)N[C@H](C(N)=O)[C@@H](C)CC)[C@@H](C)CC)[C@@H](C)CC)[C@@H](C)CC)[C@@H](C)CC)[C@@H](C)CC)[C@@H](C)CC showed for Salmonella enterica subsp. enterica serovar Pullorum C79-13 is 16

---

# Test system: Bacillus cereus
MEASURE_NAME: MIC

MIC measured on CC[C@H](C)[C@H](NC(=O)[C@H](CC(C)C)NC(=O)[C@H](CCCN=C(N)N)NC(=O)[C@H](CCC(=O)O)NC(=O)[C@H](CC(C)C)NC(=O)[C@@H](NC(=O)[C@@H]1CCCN1C(=O)[C@H](CC(C)C)NC(=O)[C@H](C)NC(=O)[C@H](Cc1ccccc1)NC(=O)[C@H](C)NC(=O)[C@H](C)NC(=O)[C@@H](NC(=O)[C@H](CCCCN)NC(=O)CNC(=O)[C@@H](NC(=O)CNC(=O)[C@@H](NC(=O)[C@H](C)NC(=O)[C@H](C)N)[C@@H](C)O)[C@@H](C)O)[C@@H](C)O)C(C)C)C(=O)O [AATGTGKTAAFALPVLERLI] = ≥ 128 µM

---

# Tested on: Escherichia coli
# METHOD_NOTES: ≥ marks a high value that may be exact or a test limit, other limits are often not marked, values filed in µg/mL are converted to µM
Items are presented alongside their recorded MIC.
Numeric answer only, unit µM assumed.

1) CC[C@H](C)[C@H](NC(=O)[C@@H]1CCCN1C(=O)[C@H](Cc1c[nH]c2ccccc12)NC(=O)[C@H](CCCN=C(N)N)NC(=O)[C@H](Cc1ccccc1)NC(=O)[C@@H](N)CCCN=C(N)N)C(=O)N[C@@H](CCCN=C(N)N)C(=O)N[C@@H](CCCN=C(N)N)C(=O)N1CCC[C@H]1C(=O)N1CCC[C@H]1C(=O)N[C@H](C(=O)N[C@@H](CCCN=C(N)N)C(=O)N1CCC[C@H]1C(=O)N1CCC[C@H]1C(=O)N[C@@H](Cc1ccccc1)C(=O)N[C@@H](Cc1ccc(O)cc1)C(=O)N[C@@H](CCCN=C(N)N)C(=O)O)[C@@H](C)CC    2.83
2) CC[C@H](C)[C@H](NC(=O)[C@H](CCC(N)=O)NC(=O)[C@@H](N)CCCN=C(N)N)C(=O)N[C@H](C(=O)N[C@@H](CCCN=C(N)N)C(=O)N[C@@H](CCCN=C(N)N)C(=O)N[C@@H](CCSC)C(=O)N[C@@H](Cc1c[nH]c2ccccc12)C(=O)N[C@@H](CCCN=C(N)N)C(N)=O)[C@@H](C)CC    19

Continue with the molecule presented below.
The molecule listed as CC[C@H](C)[C@H](NC(=O)CN)C(=O)NCC(=O)N[C@@H](C)C(=O)N[C@H](C(=O)N[C@@H](CC(C)C)C(=O)N[C@@H](CCCCN)C(=O)N[C@@H](Cc1c[nH]c2ccccc12)C(=O)N[C@@H](CC(C)C)C(=O)N1CCC[C@H]1C(=O)N[C@@H](C)C(=O)N[C@@H](CC(C)C)C(=O)N[C@H](C(=O)N[C@@H](CCCCN)C(=O)N[C@@H](CCCN=C(N)N)C(=O)N[C@@H](CCCCN)C(=O)N[C@@H](CCCN=C(N)N)C(=O)N[C@@H](CCC(N)=O)C(=O)N[C@@H](CCC(N)=O)C(=O)O)[C@@H](C)CC)C(C)C shows MIC equal to 0.405

---

# Tested on: Salmonella enterica subsp. enterica serovar Enteritidis
MEASURE_NAME: MIC (µM)
// units = µM; emit number, no label

1. CC[C@H](C)[C@H](NC(=O)[C@H](CCCCN)NC(=O)[C@@H](NC(=O)[C@H](CCC(N)=O)NC(=O)[C@@H](N)CCCN=C(N)N)[C@@H](C)CC)C(=O)N[C@@H](CCCN=C(N)N)C(=O)N[C@@H](CCCN=C(N)N)C(=O)N[C@@H](CCSC)C(=O)N[C@@H](CCCCN)C(=O)N[C@@H](Cc1c[nH]c2ccccc12)C(=O)N[C@@H](CCCN=C(N)N)C(N)=O [RQIKIRRMKWR]    31.8
2. CC[C@H](C)[C@H](NC(=O)[C@H](CCC(N)=O)NC(=O)[C@@H](N)CCCN=C(N)N)C(=O)N[C@@H](Cc1c[nH]c2ccccc12)C(=O)N[C@@H](Cc1c[nH]c2ccccc12)C(=O)N[C@@H](Cc1c[nH]c2ccccc12)C(=O)N[C@@H](Cc1c[nH]c2ccccc12)C(=O)N[C@@H](CCC(N)=O)C(=O)N[C@@H](CCCN=C(N)N)C(N)=O [RQIWWWWQR]    8.65

Attention now shifts to the item below.
MIC recorded for this molecule, CC[C@H](C)[C@H](NC(=O)[C@H](CCCCN)NC(=O)[C@@H](NC(=O)[C@H](CCCN=C(N)N)NC(=O)[C@H](CCCN=C(N)N)NC(=O)[C@H](CCSC)NC(=O)[C@H](CCCCN)NC(=O)[C@H](Cc1c[nH]c2ccccc12)NC(=O)[C@@H](N)CCCN=C(N)N)[C@@H](C)CC)C(=O)N[C@@H](CCC(N)=O)C(=O)N[C@@H](CCCN=C(N)N)C(N)=O [RWKMRRIKIQR] , is 31.8

---

# collection of MIC values tested on Candida albicans ATCC 10231
Field: numeric (µM). Do not append units.

See these solved cases before continuing.
1. C[C@H](N)C(=O)N[C@@H](CCC(N)=O)C(=O)N[C@@H](Cc1c[nH]c2ccccc12)C(=O)N[C@@H](CCCN=C(N)N)C(=O)N[C@@H](CCCN=C(N)N)C(=O)N[C@@H](Cc1c[nH]c2ccccc12)C(=O)N[C@@H](Cc1c[nH]c2ccccc12)C(=O)N[C@@H](CCC(N)=O)C(=O)N[C@@H](Cc1c[nH]c2ccccc12)C(=O)N[C@@H](CCCN=C(N)N)C(=O)N[C@@H](CCCN=C(N)N)C(N)=O    50
2. NCCCC[C@H](NC(=O)CNC(=O)[C@H](CCCCN)NC(=O)[C@H](CC(N)=O)NC(=O)[C@@H]1CSSC[C@H](N)C(=O)N1)C(=O)N[C@@H](CC(N)=O)C(=O)N[C@@H](CCCCN)C(=O)NCC(=O)N[C@@H](CO)C(=O)N[C@@H](Cc1cnc[nH]1)C(=O)O    42.5

Field: next compound
The recorded MIC for CC[C@H](C)[C@H](NC(=O)[C@H](CCCCN)NC(=O)[C@H](CCCCN)NC(=O)[C@@H](NC(=O)[C@@H](NC(=O)[C@H](CC(=O)O)NC(=O)[C@H](Cc1ccccc1)NC(=O)[C@H](CC(C)C)NC(=O)CN)[C@@H](C)CC)[C@@H](C)CC)C(=O)N[C@@H](C)C(=O)N[C@@H](CCC(=O)O)C(=O)N[C@@H](CO)C(=O)N[C@@H](Cc1ccccc1)C(=O)O is 84.4
